Where do the numbers come from? From the supplement of paper PMC10126150.

So I've got a bunch of sequences here, and I need their switch fluorescence ratio values.
Test system: ATP;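 note: ATP exposure 15 min at 22 °C before imaging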
METHOD NOTES: switch fluorescence ratio, 500 uM ATP over buffer (Cy3 cluster intensity, sum of 5 cycles each) (fold (ratio)); higher = stronger signal-on switching upon ATP binding; sequences stand for … in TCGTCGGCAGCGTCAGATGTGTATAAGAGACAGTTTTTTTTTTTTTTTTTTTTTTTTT…TC
CONDITION SET: aptamer strand: ATP DNA aptamer (quencher-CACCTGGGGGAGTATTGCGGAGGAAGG + anchor), 100 nM annealed; ATP concentration: 500 uM
Would you mind answering with just the numeric figure?

Give switch fluorescence ratio for "GTAATTAGAT" tested on ATP.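 Note: ATP exposure 15 min at 22 °C before imaging.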
0.969

Report value: switch fluorescence ratio, system: ATP, sequence: "TCATTTCAGG"
1.01

Lab note: record switch fluorescence ratio of "AGCTGGCTAA" tested on ATP.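 Note: ATP exposure 15 min at 22 °C before imaging.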
0.967

Fill in: switch fluorescence ratio on ATP, entry "TACTGGGCTT"
1.02

Please tell me the measured switch fluorescence ratio for "TTAACAGTGG" ; system: ATP.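 Note: ATP exposure 15 min at 22 °C before imaging.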
0.989

Would you please give the reported switch fluorescence ratio of "TGGCTTAGGG" with ATP?
0.99

Give ATP switch fluorescence ratio for the following sequence: "TGCTTCATAA"
1.01

GET switch fluorescence ratio | system: ATP | item: "GCGGAGTATT"
1.02

Quote ATP switch fluorescence ratio for entry "ATTTTGGAGC" .
0.999

Report the value of switch fluorescence ratio obtained on ATP for "GATTGCAGTA" .
0.983

Give measured switch fluorescence ratio for "GAAGTTCAGG" (ATP).
1.03

# assay system ATP: give switch fluorescence ratio of "TTGCGGTAGC"
1

Give reported switch fluorescence ratio for "ATGAATAAGG" (ATP)
0.983

For ATP, give switch fluorescence ratio of the listed sequence: "GGGGTTGGCT"
0.995

Specify the recorded switch fluorescence ratio for "GGGGGGCGCG" , system: ATP.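 Note: ATP exposure 15 min at 22 °C before imaging.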
1.01

Name the recorded switch fluorescence ratio of "AGGTGTTTTG" , assay system ATP.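 Note: ATP exposure 15 min at 22 °C before imaging.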
1.02

Give switch fluorescence ratio for "TCAGTATAGC" tested on ATP.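 Note: ATP exposure 15 min at 22 °C before imaging.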
1.02

Enter switch fluorescence ratio (test system ATP) for "GGGAGATTAG"
0.979

Fill: switch fluorescence ratio (ATP) for this sequence "TAGGGTTTTC"
0.988

Provide switch fluorescence ratio, tested on ATP, for "CTCAGGCAAT" .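 Note: ATP exposure 15 min at 22 °C before imaging.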
2.61

Enter switch fluorescence ratio (test system ATP) for "TGGTATTGTG"
0.947

Find switch fluorescence ratio for "CAATAGTAGA" on ATP and write it down.
1.01

Report measured switch fluorescence ratio on ATP; entry: "AGGGTTGTGT"
1.02

Provide measured switch fluorescence ratio on ATP for "AATGGGCGGA" please.
0.995

Fill in: switch fluorescence ratio on ATP, entry "TGTGAAACCT"
1.95

# assay system ATP: give switch fluorescence ratio of "AAAGGGCGAT"
0.976

# assay system ATP: give switch fluorescence ratio of "CTCCTACAGC"
1.32

Provide measured switch fluorescence ratio on ATP for "TTATCAGGTT" please.
1

Report value: switch fluorescence ratio, system: ATP, sequence: "AACCAGTGAT"
1.05

Would you please give the reported switch fluorescence ratio of "TTTTTGCTGT" with ATP?
2.91

Supply switch fluorescence ratio measured with ATP for "CATTGTTGAG" .
1.01

Consider the sequence "GGCAAAGCGT" tested on ATP; state its switch fluorescence ratio.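 Note: ATP exposure 15 min at 22 °C before imaging.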
1.03

Output reported switch fluorescence ratio of the sequence "CGTGGGGGAG" on ATP.
1.02

Find the measured switch fluorescence ratio of "GAGGACCCAG" with ATP as test system.
1.01

Using ATP as the test system, report measured switch fluorescence ratio of "TATGACGTTA" .
1

Write down the reported switch fluorescence ratio (system: ATP) of "ATTGCTGTTT"
1.04

Please indicate recorded switch fluorescence ratio of "ATCGTGTGAG" measured with ATP.
1.02

Fill in switch fluorescence ratio for "TTCGTTCCAT" tested with ATP.
0.986

State recorded switch fluorescence ratio with ATP, entry "GGGTGGCGAC" , no comment.
0.988

Please respond with reported switch fluorescence ratio (system ATP) for "ACCCTCGAAT" .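 Note: ATP exposure 15 min at 22 °C before imaging.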
1.02

Tell me its switch fluorescence ratio on ATP: "TTGGGAACAT"
1

GET switch fluorescence ratio | system: ATP | item: "CTAATCTAGC"
1.05

Tell me switch fluorescence ratio of "AGCAAAGTGT" when tested on ATP.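 Note: ATP exposure 15 min at 22 °C before imaging.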
1.02
